- Experimental Target: Dual specificity protein kinase CLK3 (Homo sapiens)
- Method Notes: Reaction Biology data for inhibitors of CLK3: Probe SAR
- Details: Reaction Biology CLK3 kinase assay, 10 uM ATP; series mostly up to 10 µM
Activity calls are given as the source filed them. The call rests on the fitted dose curve; in most records, active means well fitted inhibition curve with a large enough effect; inactive means no such curve, though single readings can be large or run the other way.
Property Name: Potency

Some molecules with recorded Potency:
- Smiles Record: "Cc1nc(CN(C)c2ncnc3ccc(-c4ccc5[nH]ncc5c4)cc23)cs1"
  Potency: "0.792 µM (active)"
- Smiles Record: "c1cncc(CNc2nccc(-c3ccc4c(c3)OCO4)n2)c1"
  Potency: "1.47 µM (active)"
- Smiles Record: "Clc1ccc(CNc2nccc(-c3ccc4c(c3)OCO4)n2)cc1Cl"
  Potency: "3.63 µM (active)"
- Smiles Record: "Clc1ccc(CNc2nccc(-c3ccc4[nH]ncc4c3)n2)cc1Cl"
  Potency: "2.93 µM (active)"
- Smiles Record: "Clc1cc(Cl)cc(CNc2ncncc2-c2ccc3c(c2)OCO3)c1"
  Potency: "inactive"

Here is the next item to consider.
Provide only the value of recorded Potency for "Clc1ccc(Nc2nccc(-c3ccc4c(c3)OCO4)n2)cc1"
inactive

---

- Experimental Target: Dual specificity protein kinase CLK3 (Homo sapiens)
- Method Notes: Reaction Biology data for inhibitors of CLK3: Probe SAR
- Details: Reaction Biology CLK3 kinase assay, 10 uM ATP; series mostly up to 10 µM
Active and inactive are the calls of the source. The call rests on the fitted dose curve; in most records, active means well fitted inhibition curve with a large enough effect; inactive means no such curve, though single readings can be large or run the other way.
Reply using exactly one outcome from active, inactive

- Smiles Record: "Clc1ccc(CNc2nccc(-c3ccc4cn[nH]c4c3)n2)cc1Cl"
  Label: "inactive"

Test call, this compound: "Cc1c(-c2ccnc(NCc3ccc(Cl)cc3)n2)sc(=O)n1C"
inactive

---

- Experimental Target: Dual specificity protein kinase CLK3 (Homo sapiens)
- Method Notes: Reaction Biology data for inhibitors of CLK3: Probe SAR
- Details: Reaction Biology CLK3 kinase assay, 10 uM ATP; series mostly up to 10 µM
Activity calls are given as the source filed them. Calls come from the whole dose curve; as a rule, active = well fitted inhibition curve with a large enough effect; inactive = no such curve, though single readings can be large or run the other way.
Reply using exactly one outcome from 1 (yes) (active), 0 (no) (inactive)

- Smiles Record: "COc1ccc(-c2ccnc(NCc3ccc(Cl)cc3)n2)cc1"
  Label: "0 (no)"
- Smiles Record: "Cc1nc(CNc2ncnc3ccc(-c4ccc5c(c4)OCO5)cc23)cs1"
  Label: "1 (yes)"

Test call, this compound: "Cc1nc(CN(C)c2ncnc3ccc(-c4ccc5c(c4)OCO5)cc23)cs1"
1 (yes)

Test call, this compound: "Brc1cc(Br)cc(CNc2nccc(-c3ccc4c(c3)OCO4)n2)c1"
0 (no)

Test call, this compound: "Clc1cc(Cl)cc(CNc2nccc(-c3ccc4c(c3)OCO4)n2)c1"
0 (no)

Test call, this compound: "COc1ccc(-c2ccnc(NCc3ccc(Cl)c(Cl)c3)n2)cc1OC"
0 (no)

Test call, this compound: "COc1cccc(-c2ccnc(NCc3ccc(Cl)c(Cl)c3)n2)c1"
0 (no)

Test call, this compound: "c1cc(-c2ccc3c(c2)OCO3)nc(Nc2ccc3c(c2)OCO3)n1"
0 (no)

Test call, this compound: "c1cncc(CNc2ncncc2-c2ccc3c(c2)OCO3)c1"
0 (no)
